Tested system: T1, Human CD228 protein (human, UniProt P08582 20-708, limits assumed)
T1 construct: Recombinant protein made in CHO cells, purified over a Ni column; The printed entry begins with the leader (MRGPSG...) and ends with ten His; also called hCD228; CD228-His protein
T1 sequence: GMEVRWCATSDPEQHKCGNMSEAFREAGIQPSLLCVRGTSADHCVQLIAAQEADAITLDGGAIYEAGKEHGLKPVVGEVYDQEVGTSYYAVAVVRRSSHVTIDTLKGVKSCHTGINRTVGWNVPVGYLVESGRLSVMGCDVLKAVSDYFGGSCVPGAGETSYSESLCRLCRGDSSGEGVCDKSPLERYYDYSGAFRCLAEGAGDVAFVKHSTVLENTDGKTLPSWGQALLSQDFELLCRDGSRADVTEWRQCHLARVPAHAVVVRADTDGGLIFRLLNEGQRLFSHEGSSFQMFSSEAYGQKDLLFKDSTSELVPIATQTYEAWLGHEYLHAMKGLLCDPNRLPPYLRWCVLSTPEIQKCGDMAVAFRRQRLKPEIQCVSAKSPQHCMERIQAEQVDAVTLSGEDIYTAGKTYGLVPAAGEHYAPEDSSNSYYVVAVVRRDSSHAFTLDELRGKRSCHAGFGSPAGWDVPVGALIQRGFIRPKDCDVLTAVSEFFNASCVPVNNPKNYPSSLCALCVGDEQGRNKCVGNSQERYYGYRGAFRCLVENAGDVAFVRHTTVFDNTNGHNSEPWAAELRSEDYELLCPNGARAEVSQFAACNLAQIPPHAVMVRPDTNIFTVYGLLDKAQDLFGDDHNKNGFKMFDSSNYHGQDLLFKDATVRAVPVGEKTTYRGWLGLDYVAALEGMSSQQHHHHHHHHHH
Protocol: Octet competition on His-chip CD228; competitor: CA518
Readout name: competition (1-response value/blank value) (%)
Field format: number, assumed %, no unit text.

Look up competition (1-response value/blank value) for this binder: CA13 (antibody, human IgG1, kappa, V domains shown, Intact IgG1 from fully human antibody-transgenic mice) VH: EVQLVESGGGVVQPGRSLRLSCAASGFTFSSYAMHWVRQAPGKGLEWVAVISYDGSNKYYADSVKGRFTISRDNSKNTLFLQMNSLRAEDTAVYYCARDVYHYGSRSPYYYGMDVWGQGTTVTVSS VL: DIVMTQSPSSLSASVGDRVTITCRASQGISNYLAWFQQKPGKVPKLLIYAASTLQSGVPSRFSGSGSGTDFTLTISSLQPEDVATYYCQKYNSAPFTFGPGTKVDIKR
102

// provenance: patent US20250121082A1
